Collected IC50 values appear next to each entry.
- assayed target: GPR6 receptor (Homo sapiens, UniProt P46095)
- Construct: expressed in transfected cells
- Sequence (P46095 whole entry): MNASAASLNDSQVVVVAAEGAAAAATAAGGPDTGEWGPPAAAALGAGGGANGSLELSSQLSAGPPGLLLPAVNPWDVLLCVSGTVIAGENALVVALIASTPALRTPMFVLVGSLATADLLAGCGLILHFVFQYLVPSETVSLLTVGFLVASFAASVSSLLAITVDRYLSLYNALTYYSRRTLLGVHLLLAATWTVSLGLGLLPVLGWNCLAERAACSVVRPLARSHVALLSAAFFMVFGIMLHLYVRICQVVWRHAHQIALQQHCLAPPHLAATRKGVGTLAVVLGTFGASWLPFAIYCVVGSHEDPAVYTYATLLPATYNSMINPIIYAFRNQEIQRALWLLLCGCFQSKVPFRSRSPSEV
- experiment description: Inhibition of cAMP Activity of GPR6 In Vitro Assay (CHO-K1 cells, HTRF cAMP)
- Assay type: cell-based
- conditions used: compounds of Compound Table 1; inhibition of constitutive cAMP activity of GPR6 expressed in CHO-K1 cells; approximate IC50; read-out: IC50
- Protocol: Inhibition of cAMP Activity of GPR6 In Vitro Assay This cell based assay measures the ability of compounds to inhibit the constitutive cAMP activity of GPR6 receptor expressed in CHO-K1 cells. CHO cells were stably expressed with GPR6 receptor, whose expression is controlled by a tetracycline inducable element. The cells were cultured in medium containing F12K, 10% FBS, 1% Penn/Strep, 200 ug/mL Hygromycin. […]

- compound: "Cc1cc(C(=O)N2CCN(c3nc4ccccc4nc3NC3CC3)CC2)no1 [Cpd 98]"
  assayed target: "GPR6 receptor (Homo sapiens, UniProt P46095)"
  IC50 (µM): 3.21
- compound: "O=C(c1cc2nc(NC3CC3)c(N3CCC([C@H](F)c4ccc(F)cc4F)CC3)nc2cn1)N1CCC1 [Cpd 591]"
  assayed target: "GPR6 receptor (Homo sapiens, UniProt P46095)"
  IC50 (µM): 0.022
- compound: "N#Cc1ccc2nc(NC3CC3)c(N3CCC(C(F)c4cc(F)ccc4F)CC3)nc2c1 (stereo not drawn) [Cpd 471]"
  assayed target: "GPR6 receptor (Homo sapiens, UniProt P46095)"
  IC50 (µM): 0.075
- compound: "Cc1cc(Br)ccc1C(=O)N1CCN(c2nc3ccccc3nc2NC2CC2)CC1 [Cpd 122]"
  assayed target: "GPR6 receptor (Homo sapiens, UniProt P46095)"
  IC50 (µM): 10.3
- compound: "Clc1cccc(CN2CCN(c3nc4ccccc4nc3Nc3ncccn3)CC2)c1 [Cpd 126]"
  assayed target: "GPR6 receptor (Homo sapiens, UniProt P46095)"
  IC50 (µM): 47
- compound: "Fc1ccc(F)c(CN2CCN(c3nc4ccccc4nc3NC3CC3)CC2)c1 [Cpd 81]"
  assayed target: "GPR6 receptor (Homo sapiens, UniProt P46095)"
  IC50 (µM): 4.58
- compound: "N#Cc1ccc2nc(NC3CC3)c(N3CCC(C(F)c4ccc(F)cc4F)CC3)nc2c1 (stereo not drawn) [Cpd 481]"
  assayed target: "GPR6 receptor (Homo sapiens, UniProt P46095)"
  IC50 (µM): 0.024
- compound: "Cc1cccc(CN2CCN(c3nc4ccccc4nc3NC3CC3)CC2)c1 [Cpd 1]"
  assayed target: "GPR6 receptor (Homo sapiens, UniProt P46095)"
  IC50 (µM): 17.7
- compound: "N#Cc1ccc(C(=O)N2CCN(c3nc4ccccc4nc3NC3CC3)CC2)cc1 [Cpd 75]"
  assayed target: "GPR6 receptor (Homo sapiens, UniProt P46095)"
  IC50 (µM): 21.8
- compound: "Clc1ccc(Cl)c(CN2CCN(c3nc4cc(Br)ccc4nc3NC3CC3)CC2)c1 [Cpd 46]"
  assayed target: "GPR6 receptor (Homo sapiens, UniProt P46095)"
  IC50 (µM): 4.82
- compound: "Cc1ccc(Nc2nc3ccccc3nc2N2CCN(Cc3cccc(Cl)c3)CC2)cc1 [Cpd 30]"
  assayed target: "GPR6 receptor (Homo sapiens, UniProt P46095)"
  IC50 (µM): 26.2
- compound: "Cc1cc(C)c2nc(N3CCN(Cc4cc(Cl)ccc4Cl)CC3)c(NC3CC3)nc2c1 [Cpd 103]"
  assayed target: "GPR6 receptor (Homo sapiens, UniProt P46095)"
  IC50 (µM): 5.31
- compound: "Clc1cccc(CN2CCN(c3nc4ccccc4nc3NC3CC3)CC2)c1 [Cpd 5]"
  assayed target: "GPR6 receptor (Homo sapiens, UniProt P46095)"
  IC50 (µM): 40.6
- compound: "CC(C)Nc1nc2ccccc2nc1N1CCN(Cc2cc(Cl)ccc2Cl)CC1 [Cpd 111]"
  assayed target: "GPR6 receptor (Homo sapiens, UniProt P46095)"
  IC50 (µM): 3.31
- compound: "Clc1ccc(Cl)c(CN2CCN(c3nc4ccc(Br)cc4nc3NC3CC3)CC2)c1 [Cpd 45]"
  assayed target: "GPR6 receptor (Homo sapiens, UniProt P46095)"
  IC50 (µM): 2.34
- compound: "O=C(c1ccc(F)c(Br)c1)N1CCN(c2nc3ccccc3nc2NC2CC2)CC1 [Cpd 89]"
  assayed target: "GPR6 receptor (Homo sapiens, UniProt P46095)"
  IC50 (µM): 4.78
- compound: "Clc1ccc(Cl)c(CN2CCN(c3nc4ccccc4nc3NC3CC3)CC2)c1.O=C(O)C(F)(F)F [Cpd 33]"
  assayed target: "GPR6 receptor (Homo sapiens, UniProt P46095)"
  IC50 (µM): 2.16
- compound: "Cc1cccc(CN2CCN(c3nc4ncccc4nc3NC3CC3)CC2)c1 [Cpd 3]"
  assayed target: "GPR6 receptor (Homo sapiens, UniProt P46095)"
  IC50 (µM): 24.6
- compound: "Fc1ccc(Nc2nc3ccccc3nc2N2CCN(Cc3cccc(Cl)c3)CC2)cc1 [Cpd 38]"
  assayed target: "GPR6 receptor (Homo sapiens, UniProt P46095)"
  IC50 (µM): 5.73
- compound: "N#Cc1ccc2nc(NC3CC3)c(N3CCN(Cc4cc(Cl)ccc4Cl)CC3)nc2c1 [Cpd 59]"
  assayed target: "GPR6 receptor (Homo sapiens, UniProt P46095)"
  IC50 (µM): 0.25
- compound: "COc1ccc(Nc2nc3ccccc3nc2N2CCN(Cc3cccc(Cl)c3)CC2)cc1 [Cpd 31]"
  assayed target: "GPR6 receptor (Homo sapiens, UniProt P46095)"
  IC50 (µM): 6.14
- compound: "Clc1cc(CN2CCN(c3nc4ccccc4nc3NC3CC3)CC2)c(Cl)s1 [Cpd 99]"
  assayed target: "GPR6 receptor (Homo sapiens, UniProt P46095)"
  IC50 (µM): 6.03
- compound: "N#Cc1cccc(CN2CCN(c3nc4ccccc4nc3NC3CC3)CC2)c1 [Cpd 95]"
  assayed target: "GPR6 receptor (Homo sapiens, UniProt P46095)"
  IC50 (µM): 22.2
- compound: "Cc1cccc(CN2CCN(c3nc4cccnc4nc3NC3CC3)CC2)c1 [Cpd 2]"
  assayed target: "GPR6 receptor (Homo sapiens, UniProt P46095)"
  IC50 (µM): 45.4
- compound: "CC(C)CCNc1nc2ccccc2nc1N1CCN(Cc2cc(Cl)ccc2Cl)CC1 [Cpd 115]"
  assayed target: "GPR6 receptor (Homo sapiens, UniProt P46095)"
  IC50 (µM): 3.98
- compound: "CS(=O)(=O)c1ccc(C(=O)N2CCN(c3nc4ccccc4nc3NC3CC3)CC2)c(Cl)c1 [Cpd 67]"
  assayed target: "GPR6 receptor (Homo sapiens, UniProt P46095)"
  IC50 (µM): 1.03
- compound: "N#Cc1ccc(Nc2nc3ccccc3nc2N2CCN(Cc3cc(Cl)ccc3Cl)CC2)cc1 [Cpd 58]"
  assayed target: "GPR6 receptor (Homo sapiens, UniProt P46095)"
  IC50 (µM): 5.53
- compound: "O=C(c1ccsc1Cl)C1CCN(c2nc3cnccc3nc2NC2CC2)CC1 [Cpd 572]"
  assayed target: "GPR6 receptor (Homo sapiens, UniProt P46095)"
  IC50 (µM): 0.021
- compound: "COc1ccc(C(=O)N2CCN(c3nc4ccccc4nc3NC3CC3)CC2)cc1Cl [Cpd 9]"
  assayed target: "GPR6 receptor (Homo sapiens, UniProt P46095)"
  IC50 (µM): 10.1
- compound: "c1ccc2nc(N3CCN(Cc4coc5ccccc45)CC3)c(NC3CC3)nc2c1 [Cpd 100]"
  assayed target: "GPR6 receptor (Homo sapiens, UniProt P46095)"
  IC50 (µM): 3.96
- compound: "COc1ccc(Br)c(C(=O)N2CCN(c3nc4ccccc4nc3NC3CC3)CC2)c1 [Cpd 85]"
  assayed target: "GPR6 receptor (Homo sapiens, UniProt P46095)"
  IC50 (µM): 7.55
- compound: "Clc1cccc(CN2CCN(c3nc4ccccc4nc3Nc3cccnc3)CC2)c1.O=C(O)C(F)(F)F [Cpd 53]"
  assayed target: "GPR6 receptor (Homo sapiens, UniProt P46095)"
  IC50 (µM): 1.2
- compound: "Clc1ccc(Cl)c(CN2CCN(c3nc4ncccc4nc3NC3CC3)CC2)c1 [Cpd 63]"
  assayed target: "GPR6 receptor (Homo sapiens, UniProt P46095)"
  IC50 (µM): 1.13
- compound: "Clc1ccc(Cl)c(CN2CCN(c3nc4ccccc4nc3NCC3CC3)CC2)c1 [Cpd 42]"
  assayed target: "GPR6 receptor (Homo sapiens, UniProt P46095)"
  IC50 (µM): 3.16
- compound: "CC(C)Nc1nc2cnncc2nc1N1CCC(Oc2ccc(Cl)cc2F)CC1 [Cpd 644]"
  assayed target: "GPR6 receptor (Homo sapiens, UniProt P46095)"
  IC50 (µM): 0.007
- compound: "O=S(=O)(c1ccccc1)N1CCN(c2nc3ccccc3nc2NC2CC2)CC1 [Cpd 105]"
  assayed target: "GPR6 receptor (Homo sapiens, UniProt P46095)"
  IC50 (µM): 5.66
